The reported measurements were obtained from the supplement of paper PMC9233669.

# self-aminoacylation annotations
tested on: biotinyl-Val-oxazolone; test: self-aminoacylation, catalytic enhancement (BVO) (fold over background); higher = more active; k-Seq, kA / k0A0; sequences stand for … in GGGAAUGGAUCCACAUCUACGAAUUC…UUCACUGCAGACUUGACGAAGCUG
This sample holds only a part of the variants without activity.
observation type: self-aminoacylation

sequence data | data value
AUUACCCUGAUCAUCCAGUGA [Fam2.1 aminoacylation ribozyme variant] | 3.49
CCACACUUCAAGCACUCGGGC [Fam1B.1 aminoacylation ribozyme variant] | 3.61
CCACACUUCGAGCAAUCAGUC [Fam1B.1 aminoacylation ribozyme variant] | 0.625
AUUGCCCUGGUCAUCGAGUGC [Fam2.1 aminoacylation ribozyme variant] | 2.32
CUCUUUCAAACAAUCGGUCUG [Fam1A.1 aminoacylation ribozyme variant] | 0.908
AUUACCUUGGUCAUCAAGUGA [Fam2.1 aminoacylation ribozyme variant] | 1.92
CAGCUUGCUAAUAGUCGCAAG [Fam3.1 aminoacylation ribozyme variant] | 1.86
AUUCACCUAGGUCUUCGGGGG [Fam2.2 aminoacylation ribozyme variant] | 3.04
AUUAACCUAGGUCACCGGGUG [Fam2.2 aminoacylation ribozyme variant] | 3.13
